System: MALME-3M melanoma
protocol summary: NCI-60 one-dose screen, 48 h
condition: 10 µM unless noted
This is part of a sample that, as a whole, favours compounds with a hit. Of some 83,000 tested, about 20% had one in any assay. The source made the active and inactive calls. Rule for the calls: active = growth percent below 10; inactive = the rest.
Write down the outcome that applies. Available outcomes: y for active, n for inactive

### Prompt For this molecule, state the assay outcome: O=C1Nc2ccccc2/C1=C/C(=O)c1ccc(N2CCCCC2)cc1
### Response n

### Prompt Again, but for Cn1cc(-c2nnc(-c3cn(C)c4ncc(Br)cc34)o2)c2ccccc21
### Response n

### Prompt And then COc1cc(-c2nc(SCCC(C)C)nc(Nc3ccccc3)c2C#N)cc(OC)c1OC , what is it?
### Response n

### Prompt Now give it for CCC(Br)(CC)C(=O)c1ccc(OCC(=O)O)c(Cl)c1Cl too.
### Response n

### Prompt Subsequent entry: Cc1ccc(C2=C/C(=C/c3ccc(Br)cc3)C(=O)N2CCc2ccc(S(N)(=O)=O)cc2)cc1
### Response n

### Prompt Another molecule to look at: O=C1CC(C(F)(F)F)Cc2nc3ccc(Br)cc3cc21 (stereo unspecified)
### Response n

### Prompt Same read-out for O=C1NC(=O)c2cc([N+](=O)[O-])cc3cccc1c23 ?
### Response n

### Prompt What do you have for Cc1cc(C)nc(SCC(=O)Nc2cccc(N=Cc3ccccc3O)c2)n1 ?
### Response n

### Prompt # iterate: c1ccc2c(c1)CN(CCCN1CCOCC1)C2
### Response n

### Prompt Request: Cc1ccc(-c2cn(C/C=C3\C=CN(S(=O)(=O)c4ccccc4)CC3)nn2)cc1
### Response n

### Prompt Then CCN=Cc1c(O)c(O)c(C(C)C)c2cc(C)c(-c3c(C)cc4c(C(C)C)c(O)c(O)c(C=NCC)c4c3O)c(O)c12 ?
### Response n

### Prompt Now the molecule CC1(C)CC[C@]23CC[C@]4(C)[C@H](CC[C@@H]5[C@@]6(C)C/C(=C/c7cccnc7)C(=O)C(C)(C)[C@@H]6CC[C@]54C)[C@H]2[C@H]1OC3=O
### Response n

### Prompt Entry CCOC(=O)Nc1ccc2c(c1)/C(=N\NC(=S)NC)c1ccccc1-2 please
### Response n

### Prompt Here is the next molecule: COc1cc(C(=O)/C=C/c2c(-c3ccc(F)cc3)nc3sccn23)cc(OC)c1OC
### Response n

### Prompt Same question for CCCCC(CCCCCC(CCCC)C1NC(C)Cc2cc(OC)c(OC)cc21)C1NC(C)Cc2cc(OC)c(OC)cc21 (stereo unspecified) please.
### Response y

### Prompt Next: COc1cc(C)cc2oc3oc(=N)c(C(=O)c4ccccc4)cc3c(=O)c12
### Response n

### Prompt Now the same for COc1cc2c(cc1OCCCCCOc1ccc(-n3c(C)nc4ccccc4c3=O)cc1)N=C[C@@H]1CCCN1C2=O
### Response y

### Prompt Also check FC(F)(F)c1ccc2c(c1)Sc1ccccc1N2
### Response n

### Prompt Also CCCCC(CC)COC(=O)C[N+](C)(C)CCOC(c1ccccc1)c1ccccc1 (stereo unspecified) ?
### Response n

### Prompt How about CC1Cc2c(ncnc2-n2cnc3ccccc32)N(C)c2ccccc21 (stereo unspecified) ?
### Response n

### Prompt Request: C[C@@H]1C[C@H]2C(=O)O[C@@H](C)[C@H](NC(=O)[C@H](Cc3cc(F)cc(F)c3)NC(=O)Nc3ccc(C4CC4)cc3F)C(=O)N3CCC[C@H]3C(=O)N3CCCC[C@H]3C(=O)N[C@@H](C)C(=O)N2C1
### Response n

### Prompt And what about the molecule O=C(C[n+]1ccn(CC(OCc2ccc(Cl)cc2Cl)c2ccc(Cl)cc2Cl)c1)c1ccc(F)cc1 (stereo unspecified) ?
### Response y

### Prompt And the next one, CNC(=O)c1cc(Oc2cccc3nc(NC(=O)Nc4cc(C(F)(F)F)cc(C(F)(F)F)c4)ccc23)ccn1 ?
### Response n

### Prompt Now consider Cn1cc(-c2noc(-c3cn(C)c4ncc(F)cc34)n2)c2ccccc21 and answer again.
### Response n

### Prompt Now consider COc1ccc(/C=C(/C2=NCCN2)n2ccc3ccccc32)cc1 .
### Response n

### Prompt Now consider O=C(CSc1nc2ccc([N+](=O)[O-])cc2[nH]1)Nc1ccc(F)c(Cl)c1 .
### Response y

### Prompt Could you do the same for C=C(C)[C@@H]1CC[C@]2(C(=O)OC)CC[C@]3(C)[C@H](CC[C@@H]4[C@@]5(C)CC/C(=N\OCCC(=NCCC#N)NOCCC#N)C(C)(C)[C@@H]5CC[C@]43C)[C@@H]12 , please?
### Response n

### Prompt Also, COc1cc2c(=O)[nH]c3cc([N+](=O)[O-])ccc3c2cc1[N+](=O)[O-] please.
### Response n

### Prompt Next record, please: Cc1c(Cn2cc(COc3ccc(Br)cc3)nn2)c(C)c(Cn2cc(COc3ccc(Br)cc3)nn2)c(C)c1Cn1cc(COc2ccc(Br)cc2)nn1
### Response n

### Prompt Can you check COc1c(C(C)=O)c(OCCCCOc2c(C(C)=O)c(OC)c3ccoc3c2OC)c(OC)c2occc12 next?
### Response n

### Prompt Ok, now Clc1ccc(N2CCN(CCCN3CCN(c4cccc(Cl)c4)CC3)CC2)cc1
### Response n

### Prompt What about this molecule? O=C(N=c1n(-c2ccccc2)nc2n1CCN2C1=NCCN1C(=O)c1ccc(Cl)cc1)c1ccc(Cl)cc1
### Response n

### Prompt What do we get for COc1ccc2c(c1)c(-c1noc(C(=O)c3cn(C)c4ncc(Br)cc34)n1)cn2C ?
### Response n

### Prompt Okay, and c1ccc(-c2nc(N3CCCNCC3)c3nc(-c4ccccc4)oc3n2)cc1 ?
### Response n

### Prompt Thanks! And O=C(NCCCNC(=O)OCc1ccc2cccc(O)c2n1)OCc1ccc2cccc(O)c2n1 ?
### Response n

### Prompt Record: COc1cc2c(cc1OCCCN1CCN(CCCOc3cc4c(cc3OC)C(=O)N3C[C@H](F)C[C@H]3C=N4)CC1)N=C[C@@H]1C[C@@H](F)CN1C2=O
### Response y
